# experiment-description: amyloid nucleation score (Sup35N fusion, yeast selection) (log enrichment); library NNK2; higher = more nucleation; inactive = no reads after selection;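 also: zero at mode of non-aggregating sequences after 7 days selection at 30°C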
readout: amyloid nucleation score
Lab note: jot down the number only; don't add units.

INSERT INTO measurements (substance, test_value) VALUES
  ('FLVFHPRDSMNI', 1.49),
  ('SVYVANYGYPRSGLN', 7.02);

Problem: What value of amyloid nucleation score has been reported for the following substance? TWQEAHNSQLGGFSIPEKN
Result: 0.155

Problem: Which measured amyloid nucleation score value corresponds to CDLKERTEYMHFLLTFYLVR ?
Result: -0.891

Problem: Looking for the measured amyloid nucleation score of FGADNGSPRSE , can you help?
Result: -0.354

Problem: Which amyloid nucleation score is listed for WNTLKVAGSVGGTAVDQVAV ?
Result: 1.33

Problem: Please give the measured amyloid nucleation score for this substance: YYLPLGYDWPWSYSKCSNTR
Result: 4.04

Problem: Given the entry HCSVSLTFFVLQTPL , report its measured amyloid nucleation score.
Result: 4.79

Problem: // returns reported amyloid nucleation score for input FVTTENLVNSLVLNMARAKK
Result: 3.44

Problem: Tell me the measured amyloid nucleation score of PGFKSCIP , please.
Result: 0.598

Problem: Name the reported amyloid nucleation score value associated with the substance FRFVEFNNSGNVCPLIFTLS
Result: -0.266

Problem: Any idea what amyloid nucleation score was measured for KRYWSPVFVQNYIDDFKVSD ?
Result: 0.453

----------
# experiment-description: amyloid nucleation score (Sup35N fusion, yeast selection) (log enrichment); library NNK2; higher = more nucleation; inactive = no reads after selection
readout: amyloid nucleation score

INSERT INTO measurements (substance, test_value) VALUES
  ('TLQCDVNTVLILHVYTTYKS', 1.13);

Problem: Please report the recorded amyloid nucleation score for MVHPDVNHSYGSVWKPWSDK .
Result: 0.132

Problem: Given the entry WHGRWSTNRRRPPNKMCRLV , report its measured amyloid nucleation score.
Result: 1.06

Problem: For VKIMMELPLKIDGFLSHVRR , what is its reported amyloid nucleation score?
Result: 0.088

Problem: Can you look up the measured amyloid nucleation score of AWGYDKAVIFGAVDLQHVGT for me?
Result: 0.062

Problem: Dear colleague, I am looking for the recorded amyloid nucleation score of the following substance: NHLLMGGGHKDAVGQSVFGI
Result: 0.074

Problem: Could you tell me which amyloid nucleation score is on file for YTYTQTR ?
Result: 0.25

Problem: For YRWVHLEFGARLAFQSVKNI , what is its reported amyloid nucleation score?
Result: 0.241

Problem: Which amyloid nucleation score is reported for this substance? TNRRILSFGVNL
Result: -0.427

Problem: So what does the record say about amyloid nucleation score for MGRTMILRSLDQMMVITVGL ?
Result: -0.598

Problem: For LLNVIVVRIK , what is its reported amyloid nucleation score?
Result: 5.31

----------
# experiment-description: amyloid nucleation score (Sup35N fusion, yeast selection) (log enrichment); library NNK3; higher = more nucleation; inactive = no reads after selection
readout: amyloid nucleation score

Solved entries (count: 10):
INSERT INTO assay_data (sequence_entry, test_value) VALUES
  ('YLYSCDSFCFLDPRYMRCPE', 'inactive'),
  ('GRVPLPCICDRWYYLEGWEV', -0.034),
  ('CPVKHGGLHYSNQSYHSSGG', 'inactive'),
  ('PECVVKSTN', 'inactive'),
  ('LASRRQMMWVVHRFLNGAVH', 'inactive'),
  ('ESFLFFMFIFASCTT', 0.536),
  ('GYMGVGRIVSA', 'inactive'),
  ('TLSIEMGQLDRERVGLNCKR', 'inactive'),
  ('AIYRIWCYGA', -0.088),
  ('WVESESQETHHIAM', -0.113);

Problem: Any idea what amyloid nucleation score was measured for SVKLLSVTSCDGGRAWWQGG ?
Result: inactive

Problem: Return reported amyloid nucleation score; argument: VLDLTKYSFLTI
Result: inactive

Problem: Fill blank: measured amyloid nucleation score of the sequence NNNFRKDSS is ____.
Result: inactive

Problem: I'd like to know its amyloid nucleation score. The sequence in question is RQHLFRSWEVQMSLSLDF
Result: -0.379

Problem: Reported amyloid nucleation score for VALAVMQKLNMRYIYNPCFV : what is it?
Result: inactive

Problem: Given the sequence VVDCWSVKATSDSYDGMWGV , what is its reported amyloid nucleation score?
Result: inactive

Problem: Which amyloid nucleation score value belongs to VGYAKYPSNRVRIYRGFENV ?
Result: inactive

----------
# experiment-description: amyloid nucleation score (Sup35N fusion, yeast selection) (log enrichment); library NNK2; higher = more nucleation; inactive = no reads after selection
Kindly note that classification relies on amyloid nucleation score with these boundaries: L = under 0.01, M = from 0.01 up to 1, H = 1 and over

# example entries with known answers
INSERT INTO measurements (substance, category) VALUES
  ('AFNATIRNAC', 'L'),
  ('GKLHIRIWQDSVWLGDLRL', 'H'),
  ('VLIFMIKVWARITLMGYSRL', 'L'),
  ('SVIKQNC', 'M'),
  ('TLFSVCSIHEQWPGEVMVSY', 'M'),
  ('LSRNTYWYGVEIGLVLSSCT', 'M'),
  ('NSFVCMLPGVFVKCRCSNAD', 'H'),
  ('ESSLDCMRDANNKAAWVEVV', 'H'),
  ('CWMFVVHIAIWGGVSLDGIV', 'M'),
  ('ASVPCVIMGRASRPRVPRMS', 'H');

Problem: In plain terms, what class is DRHIVLSHSSGNLSRLLLAL ?
Result: H

Problem: Class? Entry: LVMWNRCSIKRVNREMVHSF
Result: M

Problem: Please report the category associated with NNVSLPYMSSIVIIGLIRR , nothing else.
Result: H

Problem: Band for the recorded amyloid nucleation score of KHFAIW ?
Result: L

Problem: Determine which band this substance sits in: FYQFLNSNGKYTGVYGAAPR
Result: L

Problem: Looking at SGGHKWVYFASCISFLRPWR , which class would you pick?
Result: L

Problem: Quick check: band for RLIIPIQSCLWGGWYRTGET
Result: H

Problem: Dear colleague, I would appreciate it if you could identify the bin for VRFPTSLFSAEQCTPALCSV and reply at your convenience.
Result: M

Problem: Class? Entry: FTLKINVPETGTIVLPELGS
Result: M

Problem: Dear colleague, I would appreciate it if you could identify the bin for IFTKNFIPCDFFMS and reply at your convenience.
Result: L

Problem: // bin(item) where item = FLVHCNILALNTCHLVYL
Result: H

Problem: Could you place TRTGCDMGRRLVCS in its proper category? Many thanks.
Result: M

Problem: Class? Entry: NIFMLTLGCGCQAFCSVIMT
Result: H

Problem: Please classify: IDYRPDCQRPVLVYLNKGCM
Result: L

Problem: Which of the defined bands does the recorded amyloid nucleation score of FPFSGFVDFSVLVLRYKGSP sit within?
Result: H

Problem: Category of DMAKGVLRSLFGTA , please.
Result: L

----------
# experiment-description: amyloid nucleation score (Sup35N fusion, yeast selection) (log enrichment); library NNK3; higher = more nucleation; inactive = no reads after selection
readout: amyloid nucleation score

Illustrative cases are given below, each with its answer.
INSERT INTO results (substance, readout, test_value) VALUES
  ('NLFMMHV', 'amyloid nucleation score', 'inactive'),
  ('DKCRVCISFC', 'amyloid nucleation score', 1.14),
  ('GRRSNCINSVNSGTRGRRRA', 'amyloid nucleation score', 'inactive'),
  ('VMVCFG', 'amyloid nucleation score', 'inactive'),
  ('CLSSSINMTMVYCCNSLMFG', 'amyloid nucleation score', 2.13);

Problem: Please give the measured amyloid nucleation score for this substance: LVLYYCVTG
Result: inactive

Problem: Please give the measured amyloid nucleation score for this substance: QSFGMFAVYRAWVSIL
Result: inactive

Problem: Looking for the measured amyloid nucleation score of GTYLVSDAAGFYSWYLHYSF , can you help?
Result: inactive

Problem: If you can, please state the reported amyloid nucleation score value of SDQSCGDIMMELFWQM .
Result: inactive

Problem: Query: amyloid nucleation score; subject: YYVIDILVW
Result: inactive

----------
# experiment-description: amyloid nucleation score (Sup35N fusion, yeast selection) (log enrichment); library NNK2; higher = more nucleation; inactive = no reads after selection
Documented amyloid nucleation score across a set of substances
Write no unit; give the number alone.

// solved cases for amyloid nucleation score follow
INSERT INTO results (substance, test_value) VALUES
  ('LHQRLV', 0.195),
  ('WGSMYRYFVDGSWFVVDISP', -0.26),
  ('LSDRRFKDLMSTFRNAATYF', 6.34),
  ('WIDLNRRRREAL', -0.125),
  ('ALDSNSWPYDGGMWRTT', -0.232),
  ('VLTVWPYHCAIVEILSGCVL', 5.98);

The record that follows has no amyloid nucleation score shown yet.
Problem: Could you share which amyloid nucleation score value was measured for ACLFWIYARRHRLAWVVFIW ?
Result: -0.487
